This listing pairs compounds with measured Fold change in IC50.
# Tested on: HIV with mutations in the HIV protease sequence
# measurement-notes: Phenotypic fold resistance to protease inhibitors, protease mutations 84A/84L/84C/54M/54L/54V in a background (Examples 8-13)
# Assay type: cell-based, HIV-1
# measurement-context: Table 12, V052949, genotype 10I + 71V + 77I + 90M
result-type: Fold change in IC50 (fold)

> print(dat)
                            chemical.smiles  numeric.readout
1  CC(C)(C)NC(=O)[C@@H]1CN(Cc2cccnc2)CCN1C[C@@H](O)C[C@@H](Cc1ccccc1)C(=O)N[C@H]1c2ccccc2C[C@H]1O              2.7
2  Cc1c(O)cccc1C(=O)N[C@@H](CSc1ccccc1)[C@H](O)CN1C[C@H]2CCCC[C@H]2C[C@H]1C(=O)NC(C)(C)C              8.6
3  CC(C)c1nc(CN(C)C(=O)N[C@H](C(=O)N[C@@H](Cc2ccccc2)C[C@H](O)[C@H](Cc2ccccc2)NC(=O)OCc2cncs2)C(C)C)cs1              2.3
4  CC(C)(C)NC(=O)[C@@H]1C[C@@H]2CCCC[C@@H]2CN1C[C@@H](O)[C@H](Cc1ccccc1)NC(=O)[C@H](CC(N)=O)NC(=O)c1ccc2ccccc2n1              2.1
5  CC(C)CN(C[C@@H](O)[C@H](Cc1ccccc1)NC(=O)O[C@H]1CCOC1)S(=O)(=O)c1ccc(N)cc1              0.6

----------
# Test system: HIV with mutations in the HIV protease sequence
# measurement-notes: Phenotypic fold resistance to protease inhibitors, protease mutations 84A/84L/84C/54M/54L/54V in a background (Examples 8-13)
# Assay type: cell-based, HIV-1
# measurement-context: Table 13, V052949, genotype 10I + 71V + 77I + 90M
result-type: Fold change in IC50 (fold)

> print(dat)
                            chemical.smiles  numeric.readout
1  CC(C)c1nc(CN(C)C(=O)N[C@H](C(=O)N[C@@H](Cc2ccccc2)C[C@H](O)[C@H](Cc2ccccc2)NC(=O)OCc2cncs2)C(C)C)cs1              2.3
2  Cc1c(O)cccc1C(=O)N[C@@H](CSc1ccccc1)[C@H](O)CN1C[C@H]2CCCC[C@H]2C[C@H]1C(=O)NC(C)(C)C              8.6
3  CC(C)(C)NC(=O)[C@@H]1CN(Cc2cccnc2)CCN1C[C@@H](O)C[C@@H](Cc1ccccc1)C(=O)N[C@H]1c2ccccc2C[C@H]1O              2.7
4  CC(C)(C)NC(=O)[C@@H]1C[C@@H]2CCCC[C@@H]2CN1C[C@@H](O)[C@H](Cc1ccccc1)NC(=O)[C@H](CC(N)=O)NC(=O)c1ccc2ccccc2n1              2.1
5  CC(C)CN(C[C@@H](O)[C@H](Cc1ccccc1)NC(=O)O[C@H]1CCOC1)S(=O)(=O)c1ccc(N)cc1              0.6

----------
This listing pairs compounds with measured Fold change in IC50.
# Test system: HIV with mutations in the HIV protease sequence
# measurement-notes: Phenotypic fold resistance to protease inhibitors, protease mutations 84A/84L/84C/54M/54L/54V in a background (Examples 8-13)
# Format: cell-based, HIV-1
# measurement-context: Table 12, V048879, genotype 10I + 33F + 54M + 71V + 77I + 90M

compound	test-target	Fold change in IC50, fold
CC(C)(C)NC(=O)[C@@H]1CN(Cc2cccnc2)CCN1C[C@@H](O)C[C@@H](Cc1ccccc1)C(=O)N[C@H]1c2ccccc2C[C@H]1O [Indinavir, indinavir]	HIV with mutations in the HIV protease sequence	6.5
CC(C)CN(C[C@@H](O)[C@H](Cc1ccccc1)NC(=O)O[C@H]1CCOC1)S(=O)(=O)c1ccc(N)cc1 [Amprenavir, amprenavir]	HIV with mutations in the HIV protease sequence	14.1
Cc1c(O)cccc1C(=O)N[C@@H](CSc1ccccc1)[C@H](O)CN1C[C@H]2CCCC[C@H]2C[C@H]1C(=O)NC(C)(C)C [Nelfinavir, nelfinavir]	HIV with mutations in the HIV protease sequence	45.7
CC(C)(C)NC(=O)[C@@H]1C[C@@H]2CCCC[C@@H]2CN1C[C@@H](O)[C@H](Cc1ccccc1)NC(=O)[C@H](CC(N)=O)NC(=O)c1ccc2ccccc2n1 [Saquinavir, saquinavir]	HIV with mutations in the HIV protease sequence	51.8
CC(C)c1nc(CN(C)C(=O)N[C@H](C(=O)N[C@@H](Cc2ccccc2)C[C@H](O)[C@H](Cc2ccccc2)NC(=O)OCc2cncs2)C(C)C)cs1 [Ritonavir, ritonavir]	HIV with mutations in the HIV protease sequence	74.0

----------
# System: HIV with mutations in the HIV protease sequence
# measurement-notes: Phenotypic fold resistance to protease inhibitors, protease mutations 84A/84L/84C/54M/54L/54V in a background (Examples 8-13)
# Assay type: cell-based, HIV-1
# measurement-context: Table 9 #20, protease genotype 10I + 46I + 71V + 77I + 84A
Label Condition met when mean fold increase in resistance is at or above 60 fold; anything below gets Condition not met.

molecule	assigned-category
CC(C)(C)NC(=O)[C@@H]1CN(Cc2cccnc2)CCN1C[C@@H](O)C[C@@H](Cc1ccccc1)C(=O)N[C@H]1c2ccccc2C[C@H]1O [Indinavir, indinavir]	Condition not met
CC(C)c1nc(CN(C)C(=O)N[C@H](C(=O)N[C@@H](Cc2ccccc2)C[C@H](O)[C@H](Cc2ccccc2)NC(=O)OCc2cncs2)C(C)C)cs1 [Ritonavir, ritonavir]	Condition met
CC(C)CN(C[C@@H](O)[C@H](Cc1ccccc1)NC(=O)O[C@H]1CCOC1)S(=O)(=O)c1ccc(N)cc1 [Amprenavir, amprenavir]	Condition not met
Cc1c(O)cccc1C(=O)N[C@@H](CSc1ccccc1)[C@H](O)CN1C[C@H]2CCCC[C@H]2C[C@H]1C(=O)NC(C)(C)C [Nelfinavir, nelfinavir]	Condition met
CC(C)(C)NC(=O)[C@@H]1C[C@@H]2CCCC[C@@H]2CN1C[C@@H](O)[C@H](Cc1ccccc1)NC(=O)[C@H](CC(N)=O)NC(=O)c1ccc2ccccc2n1 [Saquinavir, saquinavir]	Condition not met

----------
# Test system: HIV with mutations in the HIV protease sequence
# measurement-notes: Phenotypic fold resistance to protease inhibitors, protease mutations 84A/84L/84C/54M/54L/54V in a background (Examples 8-13)
# Assay type: cell-based, HIV-1
# measurement-context: Table 9 #10, protease genotype 10I + 46I + 84A
Label label 1 when mean fold increase in resistance is at or above 40 fold; anything below gets label 0.

compound	assigned-category
Cc1c(O)cccc1C(=O)N[C@@H](CSc1ccccc1)[C@H](O)CN1C[C@H]2CCCC[C@H]2C[C@H]1C(=O)NC(C)(C)C [Nelfinavir, nelfinavir]	label 0
CC(C)(C)NC(=O)[C@@H]1CN(Cc2cccnc2)CCN1C[C@@H](O)C[C@@H](Cc1ccccc1)C(=O)N[C@H]1c2ccccc2C[C@H]1O [Indinavir, indinavir]	label 0
CC(C)(C)NC(=O)[C@@H]1C[C@@H]2CCCC[C@@H]2CN1C[C@@H](O)[C@H](Cc1ccccc1)NC(=O)[C@H](CC(N)=O)NC(=O)c1ccc2ccccc2n1 [Saquinavir, saquinavir]	label 1
CC(C)c1nc(CN(C)C(=O)N[C@H](C(=O)N[C@@H](Cc2ccccc2)C[C@H](O)[C@H](Cc2ccccc2)NC(=O)OCc2cncs2)C(C)C)cs1 [Ritonavir, ritonavir]	label 1
CC(C)CN(C[C@@H](O)[C@H](Cc1ccccc1)NC(=O)O[C@H]1CCOC1)S(=O)(=O)c1ccc(N)cc1 [Amprenavir, amprenavir]	label 0

----------
# Tested on: HIV with mutations in the HIV protease sequence
# measurement-notes: Phenotypic fold resistance to protease inhibitors, protease mutations 84A/84L/84C/54M/54L/54V in a background (Examples 8-13)
# Assay type: cell-based, HIV-1
# measurement-context: Virco ID V052957; genotype 10I + 33F + 54V + 90M; vs mean IC50 of wild type laboratory HIV strain
result-type: Fold change in IC50 (fold)

compound	numeric-readout
CC(C)(C)NC(=O)[C@@H]1CN(Cc2cccnc2)CCN1C[C@@H](O)C[C@@H](Cc1ccccc1)C(=O)N[C@H]1c2ccccc2C[C@H]1O [Indinavir, indinavir]	1.4
CC(C)CN(C[C@@H](O)[C@H](Cc1ccccc1)NC(=O)O[C@H]1CCOC1)S(=O)(=O)c1ccc(N)cc1 [Amprenavir, amprenavir]	5.2
CC(C)c1nc(CN(C)C(=O)N[C@H](C(=O)N[C@@H](Cc2ccccc2)C[C@H](O)[C@H](Cc2ccccc2)NC(=O)OCc2cncs2)C(C)C)cs1 [Ritonavir, ritonavir]	13.9
CC(C)(C)NC(=O)[C@@H]1C[C@@H]2CCCC[C@@H]2CN1C[C@@H](O)[C@H](Cc1ccccc1)NC(=O)[C@H](CC(N)=O)NC(=O)c1ccc2ccccc2n1 [Saquinavir, saquinavir]	1.6
Cc1c(O)cccc1C(=O)N[C@@H](CSc1ccccc1)[C@H](O)CN1C[C@H]2CCCC[C@H]2C[C@H]1C(=O)NC(C)(C)C [Nelfinavir, nelfinavir]	6.9
